Source of measurements: ChEMBL document CHEMBL3988442

# subject.of.test: Chromo domain-containing protein 1 (Saccharomyces cerevisiae (strain ATCC 204508 / S288c) (Baker's yeast)) (UniProt P32657)
# Sequence (P32657 whole entry, the tested form may be a part): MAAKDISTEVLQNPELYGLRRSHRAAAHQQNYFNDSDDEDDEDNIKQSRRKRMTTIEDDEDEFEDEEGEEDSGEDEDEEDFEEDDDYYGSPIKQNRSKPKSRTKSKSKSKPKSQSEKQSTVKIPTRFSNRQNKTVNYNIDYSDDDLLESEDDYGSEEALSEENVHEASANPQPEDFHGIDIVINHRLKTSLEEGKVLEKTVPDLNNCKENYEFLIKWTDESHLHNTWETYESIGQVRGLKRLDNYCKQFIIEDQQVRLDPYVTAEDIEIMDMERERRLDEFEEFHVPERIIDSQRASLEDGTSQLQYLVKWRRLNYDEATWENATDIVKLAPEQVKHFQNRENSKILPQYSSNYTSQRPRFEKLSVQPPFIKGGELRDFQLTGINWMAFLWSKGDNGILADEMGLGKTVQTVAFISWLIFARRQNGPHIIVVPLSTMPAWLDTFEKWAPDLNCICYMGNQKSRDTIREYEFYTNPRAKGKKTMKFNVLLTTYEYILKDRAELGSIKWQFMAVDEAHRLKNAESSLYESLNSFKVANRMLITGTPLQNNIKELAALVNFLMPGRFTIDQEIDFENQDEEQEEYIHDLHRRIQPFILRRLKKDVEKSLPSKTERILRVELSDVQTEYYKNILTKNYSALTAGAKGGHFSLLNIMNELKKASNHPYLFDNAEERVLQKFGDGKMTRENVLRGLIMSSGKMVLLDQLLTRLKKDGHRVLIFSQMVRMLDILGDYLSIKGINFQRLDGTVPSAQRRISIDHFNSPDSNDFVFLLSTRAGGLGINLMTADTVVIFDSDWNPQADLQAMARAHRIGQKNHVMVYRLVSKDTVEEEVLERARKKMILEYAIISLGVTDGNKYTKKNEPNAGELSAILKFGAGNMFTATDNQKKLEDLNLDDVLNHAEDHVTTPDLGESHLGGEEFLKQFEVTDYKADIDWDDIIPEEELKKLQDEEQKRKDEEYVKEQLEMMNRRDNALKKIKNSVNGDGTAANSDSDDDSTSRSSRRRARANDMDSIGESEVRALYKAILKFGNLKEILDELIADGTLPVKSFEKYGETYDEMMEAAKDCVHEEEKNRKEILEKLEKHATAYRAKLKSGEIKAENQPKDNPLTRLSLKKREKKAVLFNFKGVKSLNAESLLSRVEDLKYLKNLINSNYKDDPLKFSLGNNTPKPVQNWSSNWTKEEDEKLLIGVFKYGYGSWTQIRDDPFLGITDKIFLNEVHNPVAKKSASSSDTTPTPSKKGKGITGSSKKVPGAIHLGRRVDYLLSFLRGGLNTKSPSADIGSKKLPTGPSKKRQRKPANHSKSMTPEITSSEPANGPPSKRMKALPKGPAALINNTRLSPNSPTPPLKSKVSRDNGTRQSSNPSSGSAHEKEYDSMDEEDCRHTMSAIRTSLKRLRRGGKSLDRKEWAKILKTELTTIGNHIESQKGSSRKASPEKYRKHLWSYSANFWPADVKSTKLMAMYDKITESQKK
# experiment.description: ScCHD-1 Enzyme Inhibition Assay
# Format: functional
# Set-up: scale not given: in the data most compounds retested in dose-response had high values
# condition.label: 30 µM
I'd appreciate it if you could supply Percent Effect values for the items below.
Numbers only here, please. The scale is %.

Per the records, this compound ( `COCC(=O)N1CC[C@@H](N2CCOCC2)[C@@H]1Cc1ccccc1` ) has Percent Effect equal to 2.12

Sample CCc1nccn1C1CCCN(C(=O)Cc2cn3ccccc3n2)C1 (stereo not given) ; Percent Effect observed: -29

Input O=C1CC(c2ccncc2)C2(CCN(C(=O)c3ccc[nH]3)CC2)N1 (stereo not given) . Output Percent Effect: -0.00396

So for `Cc1cc(C)n(CCCNC(=O)[C@@H](C)NC(=O)OC(C)(C)C)n1` , the logged Percent Effect turned out to be -1.9

The recorded Percent Effect for entry `CN(C)C(=O)[C@@H]1C[C@@H]2CCN(Cc3ccc4c(c3)OCO4)C[C@@H]2O1` equals -0.196

----------
# subject.of.test: Chromo domain-containing protein 1 (Saccharomyces cerevisiae (strain ATCC 204508 / S288c) (Baker's yeast)) (UniProt P32657)
# experiment.description: ScCHD-1 Enzyme Inhibition Assay
# Assay type: functional
# Parameters: scale not given: in the data most compounds retested in dose-response had high values
# condition.label: 30 µM
measured.quantity: Percent Effect (%)
Just the number in %, nothing appended.

The recorded Percent Effect for `CS(=O)(=O)CC(=O)N1C[C@@H]2COC[C@]2(c2nnc(C3CC3)o2)C1` is -11.9

get_value(item= `O=C(c1ccc[nH]1)N1CCC2(CC1)C(=O)Nc1ccccc12` , readout=Percent Effect) returns -5.84

Recorded Percent Effect (molecule `CCCC(=O)N1CC[C@@H]2[C@H](CC1)N(Cc1cccnc1)CCS2(=O)=O` ): -3.88

Form: molecule = Cc1ccc(CCC(=O)N2CCCC(n3cncn3)C2)c(C)c1 (stereo unspecified) ; Percent Effect = 1.81

Briefly, Percent Effect measured for `COc1cccc(CN(C)Cc2ccc(C#N)cc2)c1OC` : -5.17

Noted for CC(Nc1cccc(CN2CCOC2=O)c1)C(=O)Nc1ccccc1F (stereo unspecified) : its Percent Effect reads -5.9

----------
# subject.of.test: Chromo domain-containing protein 1 (Saccharomyces cerevisiae (strain ATCC 204508 / S288c) (Baker's yeast))
# experiment.description: ScCHD-1 Enzyme Inhibition Assay
# Type: functional
# Set-up: scale not given: in the data most compounds retested in dose-response had high values
# condition.label: 30 µM
Can you tell me Percent Effect for the items I'm about to list?
Your answer is read as %, so omit the unit and give the number.

In plain terms, `CN(C)c1ncc(-c2cc(C(=O)O)n(CC3CC3)c2)cn1` has a documented Percent Effect of -8.88

Just so you know, measured Percent Effect for `O=C(NCCNC(=O)c1scnc1Cl)c1ccccc1` came out at -5

Just so you know, measured Percent Effect for `Cc1ccc(-c2nc(CN3CCc4c(ncn4C)C3)cs2)o1` came out at 37.3

Sample `COc1ccc(C2=CCN(C(=O)CN(C)CC(N)=O)CC2)cc1` ; Percent Effect observed: -6.22

Notebook: `CCN(CC)C(=O)c1ccn(COc2ccccc2)n1` , Percent Effect read as -0.306

Entry `CCN1CCC(NC(=O)CN2CCc3c(nc(C4CC4)n3C)C2)CC1` , Percent Effect reported as -7.12

The reported Percent Effect of the compound O=C(O)C1CCCCN1C(=O)c1cccc(C(F)(F)F)c1 (configuration not stated) was 3.59

Percent Effect measured on `Cn1ccnc1COc1ccc(CN2CCN(CCO)CC2)cc1` = -9.14

Kindly note the recorded Percent Effect for CC(C)C(C(=O)N1CCC(N(C)c2cccnn2)CC1)n1cncn1 (configuration not stated) , which is 6.08

So, `CN(C)Cc1cc(=O)n2c(n1)CN(C(=O)Cc1ccsc1)CCC2` ? Its Percent Effect was -2.76

Sure, the documented Percent Effect for CN(C)C(=O)CN1CCCCC1c1nc(N)ncc1-c1cccc(F)c1 (configuration not stated) is -4.14

The reported Percent Effect of the compound CCc1nc(C2CCCN(C(=O)CN(C)S(C)(=O)=O)C2)no1 (configuration not stated) was -25.7
